# Test system: HL-60 (TB)
# Assay info: DTP Human Tumor Cell Line Screen, sulforhodamine B assay
# Format: cell-based
# Test settings: Homo sapiens, Leukemia, 48 h
Outcome measure: IC50

> print(dat)
                                   compound  assay.result
1  O=C(OCC1COCCOCCOCCOCCO1)c1ccc(CS(=O)(=O)CC#CCO)cc1 (stereo not shown) [Compound 3.2]      > 100 µM

----------
# Test system: UACC-62
# Assay info: DTP Human Tumor Cell Line Screen, sulforhodamine B assay
# Format: cell-based
# Test settings: Homo sapiens, Melanoma, 48 h
# Experimental: The growth inhibitory activity of propargylic sulfone 3.2 against a wide range of human cancer cell lines was determined calorimetrically with sulforhodamine B assay conducted by the National Cancer Institute of the National Institutes of Health. The in vitro cytotoxicity of compounds 2.47, 2.48 and 3.2 were investigated using the DTP Human Tumor Cell Line Screen. […] Usually, test compounds were evaluated at five 10-fold dilutions. […]
Outcome measure: IC50 (µM)

> print(dat)
                                   molecule  outcome.measure  assay.result
1  O=C(OCC1COCCOCCOCCOCCO1)c1ccc(CS(=O)(=O)CC#CCO)cc1 (stereo not shown)             IC50          82.4

----------
# System: SK-MEL-28
# Assay info: DTP Human Tumor Cell Line Screen, sulforhodamine B assay
# Assay type: cell-based
# Test settings: Homo sapiens, Melanoma, 48 h
Outcome measure: IC50

> print(dat)
                                   molecule  target.desc  assay.result
1  O=C(OCC1COCCOCCOCCOCCO1)c1ccc(CS(=O)(=O)CC#CCO)cc1 (stereo not shown) [Compound 3.2]    SK-MEL-28      > 100 µM

----------
# Tested on: BT-549
# Assay info: DTP Human Tumor Cell Line Screen, sulforhodamine B assay
# Assay type: cell-based
# Test settings: Homo sapiens, Breast Cancer, 48 h
pIC50: −log10 of the molar value.
Outcome measure: pIC50

> print(dat)
                                   molecule  outcome.measure  assay.result
1  O=C(OCC1COCCOCCOCCOCCO1)c1ccc(CS(=O)(=O)CC#CCO)cc1 (stereo not shown)            pIC50        < 4.00

----------
# System: RXF 393
# Assay info: DTP Human Tumor Cell Line Screen, sulforhodamine B assay
# Assay type: cell-based
# Test settings: Renal Cancer, 48 h
pIC50: −log10 of the molar value.
Outcome measure: pIC50

> print(dat)
                            smiles.record  outcome.measure  assay.result
1     O=S1(=O)CC#CCOCCOCCOCCOCCOCCOCC#CC1            pIC50          4.82
2  O=S1(=O)CC#CCOCCOCCOCCOCCOCCOCCOCC#CC1            pIC50          4.57

----------
# System: COLO 205
# Assay info: DTP Human Tumor Cell Line Screen, sulforhodamine B assay
# Assay type: cell-based
# Test settings: Homo sapiens, Colon Cancer, 48 h
pIC50: −log10 of the molar value.
Outcome measure: pIC50

> print(dat)
                                   compound  target.desc  outcome.measure  assay.result
1  O=C(OCC1COCCOCCOCCOCCO1)c1ccc(CS(=O)(=O)CC#CCO)cc1 (stereo not shown) [Compound 3.2]     COLO 205            pIC50        < 4.00
